// provenance: paper PMC8344252

Hi there, I'd appreciate the recorded KA hCA VII for every entry that follows.
# assayed-target: hCA VII (Homo sapiens)
# Sequence (P43166 whole entry): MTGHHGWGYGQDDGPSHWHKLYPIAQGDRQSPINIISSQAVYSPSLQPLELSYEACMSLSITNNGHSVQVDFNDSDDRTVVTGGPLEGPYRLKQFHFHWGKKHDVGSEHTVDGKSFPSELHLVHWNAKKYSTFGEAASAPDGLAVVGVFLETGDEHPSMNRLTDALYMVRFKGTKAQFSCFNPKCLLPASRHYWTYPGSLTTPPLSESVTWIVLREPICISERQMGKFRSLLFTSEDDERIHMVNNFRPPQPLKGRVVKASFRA
# assay-procedure: CA activation, stopped-flow CO2 hydrase assay
# Assay type: biochemical
# condition-notes: activation constant; mean from 3 assays, errors ±5–10%
Report the figure in µM without appending any unit label.

Give hCA VII (Homo sapiens) KA hCA VII for CN(C)CCOc1ccc2c(c1)c(C(=O)NCCO)cn2Cc1ccccc1
10.7

Give KA hCA VII (hCA VII (Homo sapiens)) of the following compound: CCN(CC)CCOc1ccc2c(c1)c(C(=O)C(=O)NCCO)cn2Cc1ccccc1
9.1

Given the entry CCN(CC)CCNC(=O)C(=O)c1cn(Cc2ccccc2)c2ccc(OCCO)cc12 , what KA hCA VII was observed with hCA VII (Homo sapiens)?
10.0

Quick check: KA hCA VII on hCA VII (Homo sapiens), item CN(C)CCCNC(=O)C(=O)c1cn(Cc2ccccc2)c2ccc(OCCO)cc12 ?
10.8

Lookup: KA hCA VII / hCA VII (Homo sapiens) / CN(C)CCCOc1ccc2c(c1)c(C(=O)C(=O)NCCCO)cn2Cc1ccccc1
10.6

KA hCA VII of CCN(CC)CCOc1ccc2c(c1)c(C(=O)NCc1ccccc1)cn2Cc1ccccc1 on hCA VII (Homo sapiens)?
7.5

Provide value of KA hCA VII for this record tested with hCA VII (Homo sapiens): CCOC(=O)c1cn(Cc2ccccc2)c2ccc(OCCCN(C)C)cc12
7.2

Checklist item: KA hCA VII tested on hCA VII (Homo sapiens), entry NCCc1c[nH]cn1 [Histamine, reference compound] , value?
37.5

Give KA hCA VII (hCA VII (Homo sapiens)) of the following compound: CCOC(=O)c1cn(Cc2ccccc2)c2ccc(OCCN(C)C)cc12
8.2

Reported KA hCA VII for hCA VII (Homo sapiens), given CN(C)CCCOc1ccc2c(c1)c(C(=O)NCCO)cn2Cc1ccccc1 ?
10.4
